This collection of values is drawn from PubChem BioAssay.

assay: adipocyte viability effects, profiling panel, cell-based, 3T3-L1 adipocytes, calcein-AM fluorescence, 48 h, basal (AID 1163); settings: 3T3-L1 adipocytes viability, higher = more signal; also: test concentration not given here
Doc: threshold 1 (exclusive). Items with z-score beneath it return yes; others return no.

compound=COCCOC(=O)N1C(=O)[C@@]2(c3cc(C#CCC(C(=O)OC)C(=O)OC)ccc31)[C@H](C(=O)N1CCCCCCC1)[C@H]1C(=O)O[C@H](c3ccccc3)[C@H](c3ccccc3)N1[C@@H]2c1ccccc1OCCO discrete_label=no
compound=COCCOC(=O)N1C(=O)[C@@]2(c3cc(C#Cc4ccc(OC)cc4)ccc31)[C@H](C(=O)N1CCCCCCC1)[C@H]1C(=O)O[C@H](c3ccccc3)[C@H](c3ccccc3)N1[C@@H]2c1ccccc1OCCO discrete_label=no
compound="C=CCC(OC(C)=O)[C@@H]1[C@@H](N(Cc2cc3ccccc3o2)C(=O)c2ccc(-c3ccccc3)cc2)c2cc(OCCCO)ccc2N1C(=O)c1ccc2ccccc2n1 (stereo partly specified)" discrete_label=yes
compound=Cc1ccc(F)cc1S(=O)(=O)N[C@@H]1CCN(Cc2ccc3[nH]ccc3c2)C1 discrete_label=yes
compound=COc1ccc(CCNC(=O)[C@@]2(Sc3ccc(C)cc3)CC(=O)N(C(C)C)[C@@H]2c2ccc(CO)cc2)cc1 discrete_label=yes
compound=O=C(NCCO)C1=C[C@H](Oc2ccccc2I)[C@@H](O)[C@H](NCc2ccc(F)cc2)C1 discrete_label=no

* * *

biological target: Homeobox protein Hox-A13 (Mus musculus) (UniProt Q62424); assay: inhibitors of HoxA13-DNA binding, primary screen, biochemical, fluorescence polarization, labeled oligonucleotide (AID 1185); settings: 15 min, higher = more signal, called active from +8 up or from −8 down
Sequence (Q62424 whole entry, looked up): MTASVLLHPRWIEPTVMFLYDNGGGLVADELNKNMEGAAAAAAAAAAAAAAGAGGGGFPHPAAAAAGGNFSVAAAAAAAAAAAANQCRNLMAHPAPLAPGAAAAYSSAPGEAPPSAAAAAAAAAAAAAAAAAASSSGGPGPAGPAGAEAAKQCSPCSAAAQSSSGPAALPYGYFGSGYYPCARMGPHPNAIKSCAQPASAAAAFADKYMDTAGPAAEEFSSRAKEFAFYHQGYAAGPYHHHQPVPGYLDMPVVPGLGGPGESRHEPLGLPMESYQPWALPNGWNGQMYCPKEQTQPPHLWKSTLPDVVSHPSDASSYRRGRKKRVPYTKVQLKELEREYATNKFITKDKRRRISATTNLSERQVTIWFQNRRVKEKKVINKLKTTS
Attribute measured: z-score

compound="CC(C)(C)N1CC=CC23O[C@@H]4/C=C\\CCCOC(=O)C4[C@H]2C(=O)N(CCCCCCO)[C@@H]3C1=O (some centres undefined)" measured=-4.63
compound=COCCOC(=O)N1C(=O)[C@@]2(c3cc(C#Cc4ccc(OC)cc4)ccc31)[C@H](C(=O)Nc1nc3ccccc3s1)[C@H]1C(=O)O[C@H](c3ccccc3)[C@H](c3ccccc3)N1[C@@H]2c1ccccc1OCCO measured=3.56
compound=CC(C)=CCN(C(=O)C#Cc1ccccc1)[C@H](CO)c1ccccc1 measured=-7.52
compound=C[C@]1(C(=O)NCC(F)(F)F)c2ccccc2C(=O)N(Cc2ccc(OC(F)(F)F)cc2)[C@H]1c1ccc(CO)cc1 measured=-3.96

* * *

Entries and their z-score
biological target: NADPH oxidase 5 (Homo sapiens) (UniProt Q96PH1); assay: NOX5-dependent H2O2 signal modulators, primary screen, NOX inhibitor project, cell-based, HEK293-NOX5, Amplex Red fluorescence (AID 1161); settings: HEK293-NOX5, ionomycin, 45 min, higher = more signal
Sequence (Q96PH1 whole entry, looked up): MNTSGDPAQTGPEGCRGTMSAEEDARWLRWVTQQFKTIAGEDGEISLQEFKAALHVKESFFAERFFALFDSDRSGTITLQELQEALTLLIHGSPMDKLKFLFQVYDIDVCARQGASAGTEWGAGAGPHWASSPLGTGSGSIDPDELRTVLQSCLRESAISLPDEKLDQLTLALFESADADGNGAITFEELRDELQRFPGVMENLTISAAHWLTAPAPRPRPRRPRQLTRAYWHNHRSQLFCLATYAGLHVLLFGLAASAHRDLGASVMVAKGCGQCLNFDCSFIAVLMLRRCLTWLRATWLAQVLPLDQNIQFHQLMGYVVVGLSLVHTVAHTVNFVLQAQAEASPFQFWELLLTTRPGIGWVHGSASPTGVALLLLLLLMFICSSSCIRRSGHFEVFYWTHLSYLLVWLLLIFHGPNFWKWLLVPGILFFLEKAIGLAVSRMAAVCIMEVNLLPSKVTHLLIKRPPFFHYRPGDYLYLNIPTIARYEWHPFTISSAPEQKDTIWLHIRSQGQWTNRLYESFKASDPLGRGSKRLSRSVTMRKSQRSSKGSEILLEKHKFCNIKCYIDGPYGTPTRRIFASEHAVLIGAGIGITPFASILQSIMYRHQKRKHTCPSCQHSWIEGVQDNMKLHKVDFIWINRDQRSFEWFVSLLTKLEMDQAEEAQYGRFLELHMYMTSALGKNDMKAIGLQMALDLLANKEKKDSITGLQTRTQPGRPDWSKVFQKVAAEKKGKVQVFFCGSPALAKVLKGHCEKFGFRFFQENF
Attribute measured: z-score

compound="C=CCC(OC(C)=O)[C@@H]1[C@@H](N(Cc2cc3ccccc3o2)C(=O)Cc2ccc(OC)cc2)c2cc(OCCCO)ccc2N1C(=O)Cc1ccc2ccccc2c1 (stereo partly specified)" measured=1.21
compound="CN1C(=O)C2C=CC(C(O)c3ccc(-c4ccccc4)s3)N(Nc3ccccc3)C2C1=O (stereo unspecified)" measured=-1.81
compound=CC(C)CNC(=O)[C@@]1(C)c2ccccc2C(=O)N(Cc2cc(F)cc(C(F)(F)F)c2)[C@H]1c1ccc(CO)cc1 measured=-0.364
compound=C=CCOC(=O)[C@H]1[C@@H]2C(=O)O[C@@H](c3ccccc3)[C@@H](c3ccccc3)N2[C@@H](c2ccc(OCCOC(=O)[C@@H]3C[C@@H]4C(=O)N[C@@H](Cc5ccccc5)C(=O)N4[C@@H]3c3ccc(O)cc3)cc2)[C@]12C(=O)Nc1ccccc12 measured=2.13
compound=COCCOC(=O)N1C(=O)[C@@]2(c3cc(C#CC4(O)CCCCCC4)ccc31)[C@H](c1ccc(OCCO)cc1)N1[C@H](c3ccccc3)[C@H](c3ccccc3)OC(=O)[C@H]1[C@@H]2C(=O)N1CCCCCCC1 measured=0.0377
compound=COc1ccc(CCNC(=O)[C@@H]2c3ccccc3C(=O)N(CC34CC5CC(CC(C5)C3)C4)[C@H]2c2ccc(CO)cc2)cc1 measured=-5.14

* * *

Entries and their composite z-score
molecular target: Dickkopf-related protein 1 (Homo sapiens) (UniProt O94907); test: DKK1 binders on small-molecule microarrays, primary screen, biochemical, small-molecule microarray, 635 nm fluorescence scan (AID 1106); conditions: DKK1 binding, higher = more signal;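 also: score merges emission near 667 nm with signal to noise over three replicate slides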
Sequence (O94907 whole entry, looked up): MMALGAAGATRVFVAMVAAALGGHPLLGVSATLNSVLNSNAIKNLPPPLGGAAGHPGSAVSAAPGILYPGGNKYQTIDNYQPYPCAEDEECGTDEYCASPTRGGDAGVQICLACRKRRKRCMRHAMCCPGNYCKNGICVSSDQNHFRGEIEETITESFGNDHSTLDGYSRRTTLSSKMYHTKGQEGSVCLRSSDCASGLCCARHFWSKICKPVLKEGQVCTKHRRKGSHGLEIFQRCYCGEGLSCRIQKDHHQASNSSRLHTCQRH
Attribute measured: composite z-score

molecule=[N-]=[N+]=NCc1ccccc1C[C@]1(C(=O)O)COC(c2ccc(OCCCO)cc2)=N1 system="Dickkopf-related protein 1 (Homo sapiens) (UniProt O94907)" measured=-1.27
molecule=Cc1ccc(S[C@]2(C(=O)NCC(F)(F)F)CC(=O)N(C3CCCCC3)[C@@H]2c2ccc(CO)cc2)cc1 system="Dickkopf-related protein 1 (Homo sapiens) (UniProt O94907)" measured=-1.09
molecule=CC1(C)OC[C@@]23C=C(Br)[C@@H](C[C@H]12)[C@@]1(CO1)C3=O system="Dickkopf-related protein 1 (Homo sapiens) (UniProt O94907)" measured=0.356
molecule=COCCOC(=O)N1C(=O)[C@@]2(c3cc(C#CC4(O)CCCCCC4)ccc31)[C@H](c1ccccc1OCCO)N1[C@H](c3ccccc3)[C@H](c3ccccc3)OC(=O)[C@H]1[C@@H]2C(=O)N1CCCCCCC1 system="Dickkopf-related protein 1 (Homo sapiens) (UniProt O94907)" measured=1.09
molecule=C=CCOC(=O)[C@H]1[C@@H]2C(=O)O[C@@H](c3ccccc3)[C@@H](c3ccccc3)N2[C@@H](c2ccc(OCCOC(=O)[C@H]3C[C@H]4C(=O)NCC(=O)N4[C@H]3c3ccc(O)cc3)cc2)[C@]12C(=O)Nc1ccc(I)cc12 system="Dickkopf-related protein 1 (Homo sapiens) (UniProt O94907)" measured=1.12
molecule="CC(C)C[C@H]1NC(=O)[C@@H](C)NC(=O)[C@@]23C(=O)N[C@@H](Cc4ccccc4)C2[C@H](C)[C@@]2(C)O[C@H]2C3/C=C/C/C=C\\CNC1=O (stereo partly drawn)" system="Dickkopf-related protein 1 (Homo sapiens) (UniProt O94907)" measured=0.389
molecule=CCCC[C@@H]1C[C@H]1[C@@H](NC(=O)Cc1ccccc1)c1ccc(Cl)cc1 system="Dickkopf-related protein 1 (Homo sapiens) (UniProt O94907)" measured=-0.946
molecule=CCCCC(=C=CC[C@@H](O)c1cccc(OCCO)c1)C[C@@H](O)COCc1ccccc1 system="Dickkopf-related protein 1 (Homo sapiens) (UniProt O94907)" measured=-0.274
molecule="C=CCC(OC(C)=O)[C@@H]1[C@@H](N(Cc2ccc(-c3ccccc3)cc2)C(=O)c2ccc(C)cc2)c2cc(OCCCO)ccc2N1C(=O)c1ccc2ccccc2c1 (stereo partly drawn)" system="Dickkopf-related protein 1 (Homo sapiens) (UniProt O94907)" measured=-0.134
molecule=[N-]=[N+]=NCc1ccccc1[C@@H]1OC(c2ccc(OCCCO)cc2)=N[C@]1(Cc1ccccc1)C(=O)NCc1ccccc1 system="Dickkopf-related protein 1 (Homo sapiens) (UniProt O94907)" measured=-0.154
molecule=C=CCOC(=O)[C@@H]1[C@H]2C(=O)O[C@H](c3ccccc3)[C@H](c3ccccc3)N2[C@H](c2ccc(OCCOC(=O)[C@H]3C[C@H]4C(=O)NCC(=O)N4[C@H]3c3ccc(O)cc3)cc2)[C@@]12C(=O)Nc1ccc(I)cc12 system="Dickkopf-related protein 1 (Homo sapiens) (UniProt O94907)" measured=0.674
molecule=[N-]=[N+]=NCc1ccccc1C[C@@]1(C(=O)O)N=C(c2ccc(OCCCO)cc2)O[C@@H]1c1ccccc1CN=[N+]=[N-] system="Dickkopf-related protein 1 (Homo sapiens) (UniProt O94907)" measured=0.31
molecule=CO[C@H]1O[C@H](CO)[C@@H](OC(=O)Nc2ccc3c(c2)OCO3)[C@@H]2OC(=O)[C@@H](Cc3ccccc3)C/C=C/C[C@H](Cc3ccccc3)C(=O)O[C@@H]12 system="Dickkopf-related protein 1 (Homo sapiens) (UniProt O94907)" measured=0.401

* * *

molecular target: Albumin (Bos taurus) (UniProt P02769); assay: bovine serum albumin binders on microarray, profiling panel, artefact control for SMM control protein annotation, biochemical, small-molecule microarray, Alexa647 label, 635/667 nm fluorescence (AID 1118); settings: BSA-A647 binding, fluorescence 635 nm, higher = more signal;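 also: score merges 667 nm emission intensity and signal-to-noise per printed compound spot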
Sequence (P02769 whole entry, looked up): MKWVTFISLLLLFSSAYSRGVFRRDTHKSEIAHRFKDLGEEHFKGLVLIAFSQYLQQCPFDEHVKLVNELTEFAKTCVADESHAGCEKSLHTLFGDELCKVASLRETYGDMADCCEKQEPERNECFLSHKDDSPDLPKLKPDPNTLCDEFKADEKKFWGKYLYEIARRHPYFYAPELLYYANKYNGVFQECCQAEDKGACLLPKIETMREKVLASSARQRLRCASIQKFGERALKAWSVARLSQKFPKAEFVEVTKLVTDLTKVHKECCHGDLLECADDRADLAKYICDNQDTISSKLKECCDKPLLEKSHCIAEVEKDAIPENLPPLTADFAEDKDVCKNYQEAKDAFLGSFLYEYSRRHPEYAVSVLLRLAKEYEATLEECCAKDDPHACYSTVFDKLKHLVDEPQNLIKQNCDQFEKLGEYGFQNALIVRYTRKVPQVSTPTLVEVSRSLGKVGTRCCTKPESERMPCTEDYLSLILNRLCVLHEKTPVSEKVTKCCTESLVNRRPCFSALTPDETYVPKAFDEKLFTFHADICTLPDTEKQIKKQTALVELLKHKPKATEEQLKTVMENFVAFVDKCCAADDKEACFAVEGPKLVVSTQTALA
Attribute measured: composite z-score

molecule=COCCOC(=O)N1C(=O)[C@@]2(c3cc(C#Cc4ccc(OC)cc4)ccc31)[C@H](C(=O)Nc1nc3ccccc3s1)[C@H]1C(=O)O[C@H](c3ccccc3)[C@H](c3ccccc3)N1[C@@H]2c1ccccc1OCCO system="Albumin (Bos taurus) (UniProt P02769)" attribute_measured="composite z-score" measured=0.545
molecule="C=CCC(OC(C)=O)[C@@H]1[C@@H](N(Cc2ccc(-c3cccc(C(F)(F)F)c3)o2)C(=O)Cc2ccc(OC)cc2)c2cc(OCCCO)ccc2N1C(=O)c1ccc2ccccc2n1 (stereo partly drawn)" system="Albumin (Bos taurus) (UniProt P02769)" attribute_measured="composite z-score" measured=-0.739
molecule=CCOC(=O)C[C@H]1[C@H](OC(=O)Cc2ccc3c(c2)OCO3)[C@@H](NC(=O)c2ccccc2)c2cc(OCCCO)ccc2N1C(=O)Cc1ccc(OC)cc1 system="Albumin (Bos taurus) (UniProt P02769)" attribute_measured="composite z-score" measured=0.521
